List of pIC50 values.
# target entity: CDK4-CYCLIND1 (Homo sapiens)
# Construct: purchased Invitrogen
# test description: Inhibition assay, microfluidic LabChip (Nanosyn)
# Assay type: biochemical
# measurement conditions: Table 2; ATP 200 μM; read-out: CDK4 IC50
Note: pIC50 values are expressed as the negative base-10 logarithm of concentration in M.

In plain terms, CN(C)C(=O)c1c(F)c2cnc(Nc3ccc(N4CCN5CCC4CC5)cn3)nc2n1C1CCCC1 has a documented pIC50 of 7.52

In plain terms, CN(C)CCOc1ccc(Nc2ncc3c(F)c(C(=O)N(C)C)n(C4CCCC4)c3n2)nc1 has a documented pIC50 of 7.32

Let's switch to this compound now.
In plain terms, CC(C)N1CC=C(c2ccc(Nc3ncc4c(F)c(C(=O)N(C)C)n(C5CCCC5)c4n3)nc2)CC1 has a documented pIC50 of 7.29

* * *

# target entity: CDK2-CYCLINA (Homo sapiens, UniProt P24941)
# Construct: purchased Millipore
# test description: Inhibition assay, microfluidic LabChip (Nanosyn)
# Type: biochemical
# measurement conditions: Table 3b
property name: IC50 (nM)
# number only, unit nM dropped from output

Sample answers from the record:
In plain terms, CN(C)C(=O)c1cc2cnc(Nc3ccc(N4CCNCC4)cn3)nc2n1C12CC(C1)C2 has a documented IC50 of 18900

In plain terms, Cc1cc(Nc2ncc3cc(C(=O)N(C)C)n(C45CC(C4)C5)c3n2)ccc1OCCN(C)C has a documented IC50 of 713

In plain terms, CN1CCN(c2ccc(Nc3ncc4cc(C(=O)N(C)C)n(C56CC(C5)C6)c4n3)cc2)CC1 [Compound A84] has a documented IC50 of 185

In plain terms, CC1CN(c2ccc(Nc3ncc4cc(C(=O)N(C)C)n(C56CC(C5)C6)c4n3)cc2)CC(C)N1 (stereo not shown) has a documented IC50 of 913

More entries:
In plain terms, CN1CCN(c2ccc(Nc3ncc4cc(C(=O)N(C)C)n(C56CC(C5)C6)c4n3)cc2)CC1 [Compound A88] has a documented IC50 of 354

In plain terms, CN1CCN(C2CCN(c3ccc(Nc4ncc5cc(C(=O)N(C)C)n(C67CC(C6)C7)c5n4)cc3F)CC2)CC1 has a documented IC50 of 632

In plain terms, CN(C)C(=O)c1cc2cnc(Nc3ccc(N4CCNCC4)cc3)nc2n1C12CC(C1)C2 has a documented IC50 of 289

* * *

List of pIC50 values.
# target entity: CDK4-CYCLIND1 (Homo sapiens, UniProt P11802)
# Construct: purchased Invitrogen
# Sequence (P11802 whole entry): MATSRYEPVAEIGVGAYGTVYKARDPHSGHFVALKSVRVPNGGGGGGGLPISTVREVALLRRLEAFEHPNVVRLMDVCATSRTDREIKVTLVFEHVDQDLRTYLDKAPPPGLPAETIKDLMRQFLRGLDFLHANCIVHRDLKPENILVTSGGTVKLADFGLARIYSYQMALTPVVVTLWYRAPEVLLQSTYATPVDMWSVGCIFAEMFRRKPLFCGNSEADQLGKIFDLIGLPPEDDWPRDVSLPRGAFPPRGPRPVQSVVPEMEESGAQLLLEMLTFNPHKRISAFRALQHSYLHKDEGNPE
# Sequence (P24385 whole entry partner): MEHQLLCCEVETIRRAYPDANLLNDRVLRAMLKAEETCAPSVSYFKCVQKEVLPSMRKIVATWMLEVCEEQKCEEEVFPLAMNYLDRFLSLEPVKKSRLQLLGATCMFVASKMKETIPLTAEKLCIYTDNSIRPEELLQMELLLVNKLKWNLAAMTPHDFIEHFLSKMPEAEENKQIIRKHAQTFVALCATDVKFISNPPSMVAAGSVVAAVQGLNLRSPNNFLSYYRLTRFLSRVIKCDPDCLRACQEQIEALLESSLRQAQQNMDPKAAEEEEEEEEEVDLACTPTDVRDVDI
# test description: Inhibition assay, microfluidic LabChip (Nanosyn)
# Format: biochemical
# measurement conditions: Table 2; ATP 200 μM; read-out: CDK4 IC50
Note: pIC50 values are expressed as the negative base-10 logarithm of concentration in M.

Sample answers from the record:
In plain terms, CN1CCN(c2ccc(Nc3ncc4c(F)c(C(=O)N(C)C)n(C5CCCC5)c4n3)nc2)CC1 has a documented pIC50 of 7.42

In plain terms, CN(C)CCOc1ccc(Nc2ncc3cc(C(=O)N(C)C)n(C4CCCC4)c3n2)nc1 has a documented pIC50 of 7.72

In plain terms, CN(C)C(=O)c1cc2cnc(Nc3ccc(N4CCOCC4)c(F)c3)nc2n1C12CC(C1)C2 has a documented pIC50 of 7.82

More entries:
In plain terms, CN(C)CCOc1ccc(Nc2ncc3c(F)c(C(=O)N(C)C)n(C4CCCC4)c3n2)cc1 has a documented pIC50 of 7.65

* * *

# target entity: CDK4-CYCLIND1 (Homo sapiens)
# Construct: purchased Invitrogen
# test description: Inhibition assay, microfluidic LabChip (Nanosyn)
# Assay type: biochemical
# measurement conditions: Table 2; ATP 200 μM; read-out: CDK4 IC50
property name: pIC50
Note: pIC50 values are expressed as the negative base-10 logarithm of concentration in M.

In plain terms, Cc1cc(Nc2ncc3cc(C(=O)N(C)C)n(C45CC(C4)C5)c3n2)ccc1N1CCN(C(C)C)CC1 [Compound A31] has a documented pIC50 of 8.05

In plain terms, CN(C)C(=O)c1cc2cnc(Nc3ccc(N4CCN5CCC4CC5)cn3)nc2n1C1CCCC1 [Compound A9] has a documented pIC50 of 7.68

In plain terms, CN(C)C(=O)c1c(F)c2cnc(Nc3ccc(OCCN4CCCCC4)nc3)nc2n1C1CCCC1 [Compound A27] has a documented pIC50 of 7.40

In plain terms, CN(C)C(=O)c1cc2cnc(Nc3cc(C(F)(F)F)c(N4CCNCC4)cn3)nc2n1C1CCCC1 [Compound A24] has a documented pIC50 of 6.34

In plain terms, CN1CCN(c2ccc(Nc3ncc4c(F)c(C(=O)N(C)C)n(C5CCCC5)c4n3)cc2)CC1 [Compound A19] has a documented pIC50 of 7.81

In plain terms, CN1CCN(c2ccc(Nc3ncc4cc(C(=O)N(C)C)n(C56CC(C5)C6)c4n3)cc2F)CC1 [Compound A40] has a documented pIC50 of 8.29

More entries:
In plain terms, CN(C)C(=O)c1cc2cnc(Nc3ccc(C4=CCNCC4)cn3)nc2n1C12CC(C1)C2 [Compound A13] has a documented pIC50 of 7.83

In plain terms, CN(C)C(=O)c1cc2cnc(Nc3ccc(N4CC5(CNC5)C4)nc3)nc2n1C12CC(C1)C2 [Compound A46] has a documented pIC50 of 7.90

* * *

# System: CXF HCT-15
# test description: 2D cell proliferation assay (CellTiter-Blue)
# Format: cell-based
# measurement conditions: Homo sapiens, 72 h; cell line CXF HCT-15; three days of treatment; read-out: IC (abs. IC50)
property name: pIC50
Note: pIC50 values are expressed as the negative base-10 logarithm of concentration in M.

In plain terms, CN1CCN(c2ccc(Nc3ncc4cc(C(=O)N(C)C)n(C56CC(C5)C6)c4n3)cc2)CC1 [SPV113] has a documented pIC50 of 6.69

* * *

List of pIC50 values.
# target entity: CDK4-CYCLIND1 (Homo sapiens)
# Construct: purchased Invitrogen
# test description: Inhibition assay, microfluidic LabChip (Nanosyn)
# Type: biochemical
# measurement conditions: Table 2; ATP 200 μM; read-out: CDK4 IC50
Note: pIC50 values are expressed as the negative base-10 logarithm of concentration in M.

In plain terms, Cc1cc(Nc2ncc3c(F)c(C(=O)N(C)C)n(C4CCCC4)c3n2)ccc1N1CCN(C(C)C)CC1 has a documented pIC50 of 7.58

* * *

# target entity: CDK1/B (Homo sapiens)
# Sequence (P06493 whole entry): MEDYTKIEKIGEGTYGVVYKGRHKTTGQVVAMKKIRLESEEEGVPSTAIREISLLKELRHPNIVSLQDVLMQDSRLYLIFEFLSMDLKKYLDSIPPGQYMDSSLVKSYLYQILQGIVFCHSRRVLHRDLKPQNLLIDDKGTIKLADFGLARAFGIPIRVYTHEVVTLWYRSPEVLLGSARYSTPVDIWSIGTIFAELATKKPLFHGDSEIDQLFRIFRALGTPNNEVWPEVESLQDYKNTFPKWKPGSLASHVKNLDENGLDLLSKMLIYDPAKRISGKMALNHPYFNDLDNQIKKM
# Sequence (P14635 whole entry partner): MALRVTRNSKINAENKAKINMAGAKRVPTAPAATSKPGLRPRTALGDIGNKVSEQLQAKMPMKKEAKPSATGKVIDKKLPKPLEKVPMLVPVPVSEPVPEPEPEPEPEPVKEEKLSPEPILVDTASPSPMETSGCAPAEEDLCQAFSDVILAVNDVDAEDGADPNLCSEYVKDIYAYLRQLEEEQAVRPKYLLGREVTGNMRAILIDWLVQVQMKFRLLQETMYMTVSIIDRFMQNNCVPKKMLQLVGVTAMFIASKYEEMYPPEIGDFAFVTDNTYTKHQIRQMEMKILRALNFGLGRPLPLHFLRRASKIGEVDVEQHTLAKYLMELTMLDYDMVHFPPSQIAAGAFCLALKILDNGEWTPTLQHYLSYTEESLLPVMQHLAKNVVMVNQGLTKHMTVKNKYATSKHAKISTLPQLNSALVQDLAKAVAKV
# test description: Inhibition assay, microfluidic LabChip (Nanosyn)
# measurement conditions: Table 3a
property name: pIC50
Note: pIC50 values are expressed as the negative base-10 logarithm of concentration in M.

Sample answers from the record:
In plain terms, CN1CCC(c2ccc(Nc3ncc4cc(C(=O)N(C)C)n(C56CC(C5)C6)c4n3)cc2)CC1 [Compound A51] has a documented pIC50 of 6.34

In plain terms, CN1CC2(C1)CN(c1ccc(Nc3ncc4cc(C(=O)N(C)C)n(C56CC(C5)C6)c4n3)cc1F)C2 [Compound A70] has a documented pIC50 of 6.14

In plain terms, CN1CC2(C1)CN(c1ccc(Nc3ncc4cc(C(=O)N(C)C)n(C56CC(C5)C6)c4n3)cc1)C2 [Compound A69] has a documented pIC50 of 5.74

In plain terms, CN(C)CCOc1ccc(Nc2ncc3cc(C(=O)N(C)C)n(C45CC(C4)C5)c3n2)cc1 [Compound A60] has a documented pIC50 of 6.02

More entries:
In plain terms, CC(C)N1CCN(c2ccc(Nc3ncc4cc(C(=O)N(C)C)n(C56CC(C5)C6)c4n3)cc2)CC1 (single isomer, unassigned) [Compound A89] has a documented pIC50 of 6.36

In plain terms, CC1CCN(c2ccc(Nc3ncc4cc(C(=O)N(C)C)n(C56CC(C5)C6)c4n3)cc2)CC1 [Compound A91] has a documented pIC50 of 5.88

In plain terms, CN(C)C(=O)c1cc2cnc(Nc3ccc(N4CCN(CCO)CC4)c(F)c3)nc2n1C12CC(C1)C2 [Compound A74] has a documented pIC50 of 6.60

In plain terms, CN(C)CCOc1ccc(Nc2ncc3cc(C(=O)N(C)C)n(C45CC(C4)C5)c3n2)cc1F [Compound A93] has a documented pIC50 of 6.18

In plain terms, CN1CCN(c2ccc(Nc3ncc4cc(C(=O)N(C)C)n(C56CC(C5)C6)c4n3)cc2)CC1 [Compound A88] has a documented pIC50 of 6.42

In plain terms, Cc1cc(Nc2ncc3cc(C(=O)N(C)C)n(C45CC(C4)C5)c3n2)ccc1OCCN(C)C [Compound A92] has a documented pIC50 of 6.21

In plain terms, CC1CN(c2ccc(Nc3ncc4cc(C(=O)N(C)C)n(C56CC(C5)C6)c4n3)cc2)CC(C)N1 (stereo not shown) [Compound A90] has a documented pIC50 of 5.94

In plain terms, CN1CCN(C2CCN(c3ccc(Nc4ncc5cc(C(=O)N(C)C)n(C67CC(C6)C7)c5n4)cc3F)CC2)CC1 [Compound A68] has a documented pIC50 of 6.25

In plain terms, CN(C)C(=O)c1cc2cnc(Nc3ccc(S(C)(=O)=O)cc3)nc2n1C12CC(C1)C2 [Compound A79] has a documented pIC50 of 7.01
